- Protocol text: A549 cell viability effects, profiling panel, calcein-AM fluorescence, 48 h, basal (AID 1162); further: test concentration not given here
- Measurement conditions: higher = more signal
Measurement type: z-score
Enter the number alone.

C=CCC(OC(C)=O)[C@@H]1[C@@H](N(Cc2cc3ccccc3o2)C(=O)c2ccc(C)cc2)c2cc(OCCCO)ccc2N1C(=O)c1ccc2ccccc2c1 (some centres undefined) | 1.37

Recorded z-score for CC(C)C[C@@H]1NC(=O)[C@H]2C[C@@H](C(=O)NCCCCCNC(=O)CS)[C@@H](c3cccc(OCCO)c3)N2C1=O , please?
0.546

Recorded z-score for COCCOC(=O)N1C(=O)[C@@]2(c3cc(C#CCCO)ccc31)[C@H](c1ccccc1OCCO)N1[C@H](c3ccccc3)[C@H](c3ccccc3)OC(=O)[C@H]1[C@@H]2C(=O)N1CCN(c2ncccn2)CC1 , please?
-0.442

Recorded z-score for O=C(CS)NCCCCCCNC(=O)[C@H]1C[C@H]2C(=O)NCC(=O)N2[C@H]1c1ccc(O)cc1 , please?
0.324
